All figures here come from PubChem BioAssay (NCATS).

assay: BET inhibitor-based combinations targeting novel dependencies in MECOM-rearranged (r) AML: UCSD-AML1 cell line (AID 2202235); details: UCSD-AML1 AML cells viability, CellTiter-Glo, 48 h; series mostly up to 46 µM; note: nearly all actives have a fitted effect of over 40% in size
Inconclusive results are not listed. Active and inactive are the calls of the source. Calls come from the whole dose curve; as a rule, active = well fitted inhibition curve with a large enough effect; inconclusive = small, poorly fitted or top-dose-only effect; inactive = no such curve, though single readings can be large or run the other way.
Answer with one of the outcomes given here: Yes = active, No = inactive

Qu. For Nc1ccc(F)cc1NC(=O)c1ccc(CNC(=O)/C=C/c2cccnc2)cc1 , which call appears in the assay record?
Ans. Yes

Qu. For COC(=O)Nc1nc2ccc(S(=O)c3ccccc3)cc2[nH]1 (configuration not stated) , which call appears in the assay record?
Ans. Yes

Qu. For C=C1CCC2[C@](C)(CO)C(O)CC[C@]2(C)C1C/C=C1/C(=O)OCC1O (some centres not stated) , which call appears in the assay record?
Ans. Yes

Qu. For CCN1C(=O)CNc2ncc(-c3ccc(-c4ncn[nH]4)nc3C)nc21 , which call appears in the assay record?
Ans. Yes

Qu. For CC(=O)OCC(=O)[C@@]12OC(C)(C)O[C@@H]1C[C@H]1[C@@H]3C[C@H](F)C4=CC(=O)C=C[C@]4(C)[C@@]3(F)[C@@H](O)C[C@@]12C , which call appears in the assay record?
Ans. No

Qu. For CC/C(=C(/c1ccc(/C=C/C(=O)O)cc1)c1ccc2[nH]ncc2c1)c1ccc(F)cc1Cl , which call appears in the assay record?
Ans. No

Qu. For C=CC(=O)Nc1cccc(Nc2nc(Nc3ccc(N4CCN(C(C)=O)CC4)cc3OC)ncc2C(F)(F)F)c1 , which call appears in the assay record?
Ans. Yes

Qu. For Cc1ccc(Nc2nnc(Cc3ccncc3)c3ccccc23)cc1Br , which call appears in the assay record?
Ans. No

Qu. For Nc1ccn([C@@H]2O[C@H](CO)[C@@H](O)[C@H]2O)c(=O)n1 , which call appears in the assay record?
Ans. No

Qu. For C#C[C@]1(O)CC[C@H]2[C@@H]3[C@H](C)CC4=C(CCC(=O)C4)[C@H]3CC[C@@]21C , which call appears in the assay record?
Ans. No

Qu. For CC(C)n1cc(-c2ccc3c(c2)N(C)CC3)c2c(NS(=O)(=O)c3ccn(C)n3)ccnc21 , which call appears in the assay record?
Ans. No

Qu. For CC1(C)O[C@@H]2C[C@H]3[C@@H]4CCC5=CC(=O)C=C[C@]5(C)[C@H]4[C@@H](O)C[C@]3(C)[C@]2(C(=O)CO)O1 , which call appears in the assay record?
Ans. No

Qu. For CC(C)(O)CS(=O)(=O)Nc1ccc2c(c1)CCN(C(=O)COc1cccnc1)C2 , which call appears in the assay record?
Ans. Yes

Qu. For CCO[C@@H]1OC(=O)C[C@@H]1NC(=O)[C@@H]1CCCN2C(=O)CC[C@H](NC(=O)c3nccc4ccccc34)C(=O)N12 , which call appears in the assay record?
Ans. No

Qu. For CC1(C)CC[C@]2(C(=O)O)CC[C@]3(C)C(=CC[C@@H]4[C@@]5(C)C[C@@H](O)[C@H](O)C(C)(C)[C@@H]5CC[C@]43C)[C@@H]2C1 , which call appears in the assay record?
Ans. No

Qu. For N#Cc1ccnc(N2C(=O)CC[C@H]2C(=O)N(c2cncc(F)c2)C(C(=O)NC2CC(F)(F)C2)c2ccccc2Cl)c1 (some centres not stated) , which call appears in the assay record?
Ans. No

Qu. For CN(CCOc1ccc(-c2ccc3c(c2)OCO3)cc1C(C)(C)C)CC(=O)O , which call appears in the assay record?
Ans. No

Qu. For CCCC[C@@H](C=O)NC(=O)[C@H](CC(C)C)NC(=O)OCc1ccccc1 , which call appears in the assay record?
Ans. No

Qu. For Nc1nc(F)nc2c1ncn2C1OC(COP(=O)(O)O)C(O)C1O (configuration not stated) , which call appears in the assay record?
Ans. Yes

Qu. For NCC(=O)Nc1cncc(-c2nn3c(=O)cc(N4CCNCC4)nc3s2)c1 , which call appears in the assay record?
Ans. No

Qu. For CCc1ccc(N(CC(C)C)S(=O)(=O)c2ccc(OCC3CCOCC3)c(CO)c2)cc1 , which call appears in the assay record?
Ans. No

Qu. For COc1cc(-c2cn(C)c(=O)c3cnccc23)cc(OC)c1CN(C)C , which call appears in the assay record?
Ans. No

Qu. For Cc1c(F)cccc1NC(=O)Nc1ccc(Cl)c(S(=O)(=O)[C@H]2CCCNC2)c1O , which call appears in the assay record?
Ans. No

Qu. For Cc1nnc(C[C@@H]2C=C(c3ccc(Cl)cc3)c3ccccc3-n3c(C)nnc32)o1 , which call appears in the assay record?
Ans. Yes

Qu. For Cc1ccc(F)c(NC(=O)Nc2ccc(-c3cccc4[nH]nc(N)c34)cc2)c1 , which call appears in the assay record?
Ans. Yes

Qu. For O=C1OC2(CCC(C(=O)Nc3ccn(-c4ccccc4F)n3)CC2)c2cnccc21 (configuration not stated) , which call appears in the assay record?
Ans. No

Qu. For CCc1cc2c(c(OCC(F)(F)F)c(C(=O)NC3CCN(C(=O)CO)CC3)n2C)c(=O)n1CC(=O)c1ccccc1 , which call appears in the assay record?
Ans. No

Qu. For c1ccc(CNCc2ccc(CN3CCCNCCNCCCNCC3)cc2)nc1 , which call appears in the assay record?
Ans. No

Qu. For Clc1ccc(CCC(Cn2ccnc2)Sc2c(Cl)cccc2Cl)cc1 (configuration not stated) , which call appears in the assay record?
Ans. No

Qu. For Cn1cc(C2=C(c3cn(C)c4cc([N+](=O)[O-])ccc34)C(=O)NC2=O)c2ccccc21 , which call appears in the assay record?
Ans. Yes

Qu. For C[C@H](NC(=O)[C@H]1NCC[C@@H]1O)c1ccc(-c2noc(CCC3CCCC3)n2)cc1 , which call appears in the assay record?
Ans. No

Qu. For COc1ccc(CC2c3cc(OC)c(OC)cc3CC[N+]2(C)CCC(=O)OCCCCCOC(=O)CC[N+]2(C)CCc3cc(OC)c(OC)cc3C2Cc2ccc(OC)c(OC)c2)cc1OC (configuration not stated) , which call appears in the assay record?
Ans. No

Qu. For CCCc1nc(C)c2c(=O)[nH]c(-c3cc(S(=O)(=O)N4CCN(CC)CC4)ccc3OCC)nn12 , which call appears in the assay record?
Ans. No

Qu. For CC1(C)O[C@@H]2C[C@H]3[C@@H]4C[C@H](F)C5=CC(=O)C=C[C@]5(C)[C@H]4[C@@H](O)C[C@]3(C)[C@]2(C(=O)CO)O1 , which call appears in the assay record?
Ans. No

Qu. For CCCCN(CCCC)CCC(O)c1cc2c(Cl)cc(Cl)cc2c2cc(C(F)(F)F)ccc12 (configuration not stated) , which call appears in the assay record?
Ans. Yes

Qu. For COc1cc(O)c2c(c1)C1OC1C[C@H](O)[C@H](O)C(=O)C=CC[C@H](C)OC2=O (some centres not stated) , which call appears in the assay record?
Ans. Yes

Qu. For CCS(=O)(=O)N1CCC(C(C)n2c(C)c(C(=O)NCc3c(OC)cc(C)[nH]c3=O)c3ccccc32)CC1 (configuration not stated) , which call appears in the assay record?
Ans. No
